Below, each entry is listed with its recorded pIC50.
# System: Rat fibroblasts (CREF)
# assay details: Peg3 promoter luciferase inhibitors, potency, dose response, cell-based, HeLa, CREF/GAPDH counter-screen panel (AID 624167)
# condition details: CREF/GAPDH counter-screens, run 2, dose range 1, individual replicate IC50 per panel
Conceptually, pIC50 converts a concentration in mol/L into minus its log10.

A selection of reference data follows.
>>> result_number("COc1cccc(-c2sc3ccccc3c2-c2ccc(OCCN(C)C)cc2)c1")
4.85
>>> result_number("O=C1c2cccc3cc([N+](=O)[O-])cc(c23)C(=O)N1CCN1CCCC1")
5.29

Challenge: Which pIC50 value is on record for O=C(COc1ccc(Cl)cc1Cl)Nc1ccccn1 ?
Response given: 5.99

Challenge: Which pIC50 value is on record for CN(C)c1ccc(/C=C/c2ccc3ccccc3n2)cc1 ?
Response given: 5.49

Challenge: Which pIC50 value is on record for COc1cccc(/C=N/NC(=O)c2c(C)nc3ccc(Cl)cn23)c1O ?
Response given: 4.41

Challenge: Which pIC50 value is on record for CCC(C)Cn1c(O)cc2nn(-c3nc4ccccc4s3)c(=O)c-2c1C (stereo not given) ?
Response given: 4.23

Challenge: Which pIC50 value is on record for CC(C)CC1C(=O)N(Cc2cn(Cc3ccco3)nn2)CCS(=O)(=O)N1Cc1ccc(-c2ccc(F)cc2)cc1 (stereo not given) ?
Response given: 4.46

Challenge: Which pIC50 value is on record for CCN(CCO)c1ccc(N=Nc2cc(C)[nH]n2)cc1 ?
Response given: 5.53

Challenge: Which pIC50 value is on record for O=C(N/N=C/c1cc([N+](=O)[O-])ccc1O)c1ccc(COc2ccc3c(c2)CCC3)o1 ?
Response given: 4.27

Challenge: Which pIC50 value is on record for COc1ccc(C(NC(=O)C(C)C)c2ccc3cccnc3c2O)cc1 (stereo not given) ?
Response given: 4.46
